procedure summary: Stability in mouse plasma assessed as parent compound remaining at 5 ug/ml measured after 240 mins by LC-MS/MS analysis
Format: ADME, cell-free
experimental parameters: at 5 µg/mL, read-out: Stability

# substance smiles, unit name, remaining at 4 h, 5 ug/ml
records = [
    ("Nc1nc(N)c2c(ccc3c2ccn3Cc2ccc3scnc3c2)n1", "%", 95.2),
    ("Cc1cc2c3c(N)nc(N)nc3ccc2n1Cc1nc2ccccc2s1", "%", 97.5),
]

====

measured on: Dihydrofolate reductase (Homo sapiens) (UniProt P00374)
Sequence (P00374 whole entry): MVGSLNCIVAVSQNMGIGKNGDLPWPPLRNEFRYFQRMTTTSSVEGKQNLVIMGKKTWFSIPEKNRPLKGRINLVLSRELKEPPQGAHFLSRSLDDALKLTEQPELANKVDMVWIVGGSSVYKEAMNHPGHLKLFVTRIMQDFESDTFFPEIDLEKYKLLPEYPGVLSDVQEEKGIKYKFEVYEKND
procedure summary: Inhibition of human DHFR at 1 uM incubated for 10 mins in presence of NADPH by colorimetry based analysis relative to control

# substance smiles, inhibition / %
measured = [
    ("Nc1nc(N)c2c(ccc3c2ccn3Cc2ccc3ocnc3c2)n1", 29.1),
    ("Nc1nc(N)c2c(ccc3c2ccn3Cc2ccc(B(O)O)c3ccccc23)n1", 77.4),
    ("Nc1nc(N)c2c(ccc3c2ccn3Cc2ccc(Br)c3ccccc23)n1", 74.1),
    ("Nc1nc(N)c2c(ccc3c2ccn3Cc2cccc3ccccc23)n1", 83.9),
    ("COC(=O)c1ccc2nc(Cn3ccc4c5c(N)nc(N)nc5ccc43)ccc2c1", 64.5),
    ("Nc1nc(N)c2c(ccc3c2ccn3Cc2ccc3nc(N)sc3c2)n1", 90.2),
    ("Nc1nc(N)c2c(ccc3c2ccn3Cc2ccc3ccccc3c2)n1", 70.9),
    ("Cc1cc2c3c(N)nc(N)nc3ccc2n1Cc1nc2ccccc2s1", 99.1),
    ("Nc1nc(N)c2c(ccc3c2ccn3Cc2ccc(-c3ccccc3)cc2)n1", 54.8),
    ("Nc1nc(N)c2c(ccc3c2cc(-c2ccccc2)n3Cc2nc3ccccc3s2)n1", 17.3),
    ("Nc1nc(N)c2c(ccc3c2ccn3Cc2ccc3cc(C(=O)O)ccc3c2)n1", 98.8),
    ("COC(=O)c1ccc(Cn2ccc3c4c(N)nc(N)nc4ccc32)c2ccccc12", 83.9),
    ("Nc1nc(N)c2c(ccc3c2ccn3Cc2cccc3sc(N)nc23)n1", 77.4),
    ("Nc1nc(N)c2c(ccc3c2ccn3Cc2ccc(C(=O)O)c3ccccc23)n1", 93.5),
    ("Nc1nc(N)c2c(ccc3c2ccn3Cc2nc3ccccc3o2)n1", 16.1),
    ("Nc1nc(N)c2c(ccc3c2ccn3Cc2nc3ccc(C(=O)O)cc3s2)n1", 80.6),
    ("Nc1nc(N)c2c(ccc3c2ccn3Cc2cc3ccccc3s2)n1", 70.9),
]

Hey, just so you know, these numbers are from ChEMBL document CHEMBL5370585.
